test: Solubility in simulated gastric/intestinal fluids and pH media; format: physicochemical; conditions: fed-state simulated intestinal fluid (Phares FeSSIF), pH 6.5, fessif, thermodynamic from solid, Batch 3, Phares FeSSIF pH .5, 24 hr
Where a name gives a salt, the structure may show the parent alone.
ASSAY READOUT: solubility at 24 hr (µg/mL)
Quick note: give the figure in µg/mL, leave out the unit.

Recorded solubility at 24 hr (compound Cc1c(F)cccc1NC(=O)Nc1ccc(Cl)c(S(=O)(=O)[C@H]2CCCNC2)c1O [HBr Salt] ): 340

###

test: Solubility in simulated gastric/intestinal fluids and pH media; assay type: physicochemical; conditions: simulated gastric fluid (SGF), pH 1.6, simulated gastric fluid, thermodynamic from solid, Batch 3, SGF pH 1.6, 24 hr
Structures can show the parent of a compound that is named as a salt.
ASSAY READOUT: solubility at 24 hr (µg/mL)
Quick note: give the figure in µg/mL, leave out the unit.

Recorded solubility at 24 hr (compound Cc1c(F)cccc1NC(=O)Nc1ccc(Cl)c(S(=O)(=O)[C@H]2CCCNC2)c1O [HBr Salt] ): 779

Values from patent US9809540B2
